# assayed.target: Female germline-specific tumor suppressor gld-1 (Caenorhabditis elegans)
# measurement.protocol: small molecules blocking C. elegans GLD-1 RNA recognition – biochemical, fluorescence polarization, primary screen (AID 2280);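 also: 0% = DMSO wells with GLD-1 and probe and 100% = wells lacking GLD-1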
# measurement.conditions: purified GLD-1 + fluorescein TGE RNA, at 5.96 µM, active compounds read high
In all, about 320,000 compounds went through this assay and about 1,400 (0.44%) were called active. The full list was thinned out, with actives kept by preference.
measure.name: inhibition

Consider the reported inhibition for these compounds:
>>> reading("CN(CCOc1ccccc1)C(=O)c1cc(-c2ccco2)nc2ccccc12")
"44.1% (active)"
>>> reading("CN(C(=O)COC(=O)c1cc(-c2ccco2)nc2ccccc12)C1CCS(=O)(=O)C1 (stereo unspecified)")
"24.7% (inactive)"
>>> reading("CC(C)(C)CN1CCNC(=O)C1CC(=O)NC1Cc2ccccc2C1 (stereo unspecified)")
"8.53% (inactive)"
>>> reading("O=C1c2ccccc2C(=O)c2c1cccc2N1CCN(CCO)CC1")
"48.6% (active)"
>>> reading("CCSc1nc2sc3c(c2c(=O)[nH]1)CC(C)(C)OC3")
"-5.06% (inactive)"

*Q* Could you share which inhibition value was measured for CC(C)c1nc2sc3c(c2c(=O)n1N)CC(C)(C)OC3 ?
*A* 2.68% (inactive)

*Q* Fill in: inhibition of CCCCn1ccnc1C(=O)c1cccc(S(=O)(=O)N2c3ccccc3CC2C)c1 (stereo unspecified) is ___
*A* 0.24% (inactive)

*Q* Would you mind telling me what inhibition value was observed for CC/C(C)=N/Nc1nc2sc3c(c2c(=O)[nH]1)CC(C)(C)OC3 ?
*A* 62.3% (active)

*Q* Quick one: inhibition for Cc1cc(=O)oc2cc(OCC3CC(c4ccccc4Cl)=NO3)ccc12 (stereo unspecified) ?
*A* 4.3% (inactive)

*Q* Requested read-out: inhibition. Entry: CCCCCCCCc1c(O)nc(-n2[nH]c(C)c(CCO)c2=O)[nH]c1=O
*A* 3.56% (inactive)

*Q* // query inhibition value for entry O=C1c2ccccc2C(=O)c2c1cccc2N1CCN(Cc2ccccc2)CC1
*A* 0.8% (inactive)

###

# assayed.target: Female germline-specific tumor suppressor gld-1 (Caenorhabditis elegans) (UniProt Q17339)
# Sequence (Q17339 whole entry, looked up): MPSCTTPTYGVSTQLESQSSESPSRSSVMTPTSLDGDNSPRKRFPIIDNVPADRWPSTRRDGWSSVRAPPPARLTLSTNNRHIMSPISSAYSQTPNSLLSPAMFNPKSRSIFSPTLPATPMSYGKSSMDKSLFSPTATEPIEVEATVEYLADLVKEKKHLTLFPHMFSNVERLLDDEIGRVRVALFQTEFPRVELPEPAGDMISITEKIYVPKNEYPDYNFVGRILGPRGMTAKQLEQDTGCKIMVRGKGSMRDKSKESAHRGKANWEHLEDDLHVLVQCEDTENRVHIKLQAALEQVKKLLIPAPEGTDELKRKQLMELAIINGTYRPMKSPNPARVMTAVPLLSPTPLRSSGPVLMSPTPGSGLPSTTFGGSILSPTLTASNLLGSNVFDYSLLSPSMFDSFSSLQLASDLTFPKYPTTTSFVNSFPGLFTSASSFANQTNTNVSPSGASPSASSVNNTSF
# measurement.protocol: small molecules blocking C. elegans GLD-1 RNA recognition – biochemical, fluorescence polarization, primary screen (AID 2280);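 also: 0% = DMSO wells with GLD-1 and probe and 100% = wells lacking GLD-1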
# measurement.conditions: purified GLD-1 + fluorescein TGE RNA, at 5.96 µM, active compounds read high
In all, about 320,000 compounds went through this assay and about 1,400 (0.44%) were called active. For the sample, actives were picked, then their nearest neighbours and some compounds at random.
measure.name: inhibition (%)
Express it in %; write the number only.

>>> reading("COC(=O)c1sccc1NN1C(=O)c2ccccc2C1=O")
4.27
>>> reading("CCOc1ccc(NC(=O)CSc2ncnc3c2sc2ccccc23)cc1")
7.48

*Q* Fill in: inhibition of CSc1ccccc1NC(=O)C(C)N1C(=O)c2ccccc2S1(=O)=O (stereo unspecified) is ___
*A* -0.85

*Q* # lookup: inhibition of CCCCCCn1c(CN2CCCC(C)C2)nc2c1c(=O)n(C)c(=O)n2C (stereo unspecified)
*A* 9.13

*Q* Using the record for O=C(CCN1CCc2ccccc2C(O)(c2ccccc2)C1)c1ccc2c(c1)OCCO2 (stereo unspecified) , report its inhibition.
*A* 8.71

*Q* For the compound Cc1c(CN2CCCCC2)c(O)n(CCO)c(=O)c1C#N , what inhibition is on record?
*A* 7.69

###

# assayed.target: Female germline-specific tumor suppressor gld-1 (Caenorhabditis elegans)
# measurement.protocol: small molecules blocking C. elegans GLD-1 RNA recognition – biochemical, fluorescence polarization, primary screen (AID 2280);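 also: 0% = DMSO wells with GLD-1 and probe and 100% = wells lacking GLD-1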
# measurement.conditions: purified GLD-1 + fluorescein TGE RNA, at 5.96 µM, active compounds read high
The whole screen tested about 320,000 compounds, of which about 1,400 (0.44%) were called active. Only a selection was taken, and actives are over-represented in it overall.
measure.name: inhibition (%)
Return type: number; implicit unit %.

>>> reading("O=C(NCCc1ccccc1)C1CCN(S(=O)(=O)c2ccc(Br)s2)CC1")
4.67
>>> reading("CN1CCN(c2ccccc2NC(=O)COc2ccc(C3CCCCC3)cc2)CC1")
2.44
>>> reading("Cc1ccccc1Nc1nc(N)nc(CSc2ccccc2)n1")
6.58
>>> reading("COc1ccc(Cl)cc1NC(=O)C(C)N1CCc2ccccc21 (stereo unspecified)")
-0.08
>>> reading("O=S(=O)(NCc1cccnc1)c1ccc(Br)s1")
2.39

Please examine the following record next.
*Q* For the compound Cc1ccccc1Nc1nc(N)nc(CN2CCN(c3ccccn3)CC2)n1 , what inhibition is on record?
*A* 2.81

###

# assayed.target: Female germline-specific tumor suppressor gld-1 (Caenorhabditis elegans) (UniProt Q17339)
# measurement.protocol: small molecules blocking C. elegans GLD-1 RNA recognition – biochemical, fluorescence polarization, primary screen (AID 2280);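 also: 0% = DMSO wells with GLD-1 and probe and 100% = wells lacking GLD-1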
# measurement.conditions: purified GLD-1 + fluorescein TGE RNA, at 5.96 µM
The whole screen tested about 320,000 compounds, of which about 1,400 (0.44%) were called active.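 How the source made its calls: active means percent inhibition above a per-plate cutoff, the plate mean of test compounds plus 3 SD (cut at about 30% in these data); inactive means the rest.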 This is one part of a sample in which actives are shown more often than they occur.
Use one of these outcomes when replying: true for active, false for inactive

The following molecules have reported results that may help.
>>> label("CCCCNc1c(-c2cccc(Sc3ccc(OC)cc3)c2)nc2ccccn12")
"false"
>>> label("Oc1ccc(-c2onc3ccc(Cl)cc23)cc1")
"false"
>>> label("CSCCNC(=O)c1ccc2nc(Cc3ccccc3F)oc2c1")
"false"
>>> label("Cc1ccc2nc(N3C(=O)C(O)=C(C(=O)c4ccco4)C3c3cccc(O)c3)sc2c1 (stereo unspecified)")
"false"
>>> label("CC(=O)c1nnn(-c2ccc(Cl)cc2C#N)c1C")
"false"
>>> label("CNC(=O)c1cccc2nc3ccccc3nc12")
"false"

*Q* Look up the recorded call for CCC(=O)Nc1ccc(S(=O)(=O)Nc2c(NC)c3ccccc3oc2=O)cc1 in this test.
*A* false

*Q* Each molecule tested received a call. Report the one for O=c1[nH]c(=O)c2nc3ccccc3nc2[nH]1 .
*A* true

*Q* Outcome? O=C(O)CCn1c(Cc2ccccc2)nc2ccccc21
*A* false

*Q* What was the test verdict on COc1ccc(Nc2ccc([N+](=O)[O-])cn2)cn1 ?
*A* true

*Q* Given O=C1NCCn2nc3ccccc3c21 , state the outcome it received in this test.
*A* false

###

# assayed.target: Female germline-specific tumor suppressor gld-1 (Caenorhabditis elegans)
# measurement.protocol: small molecules blocking C. elegans GLD-1 RNA recognition – biochemical, fluorescence polarization, primary screen (AID 2280);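 also: 0% = DMSO wells with GLD-1 and probe and 100% = wells lacking GLD-1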
# measurement.conditions: purified GLD-1 + fluorescein TGE RNA, at 5.96 µM
The campaign covered roughly 320,000 compounds. About 1,400 (0.44%) were called active.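 Rule for the calls: active = percent inhibition above a per-plate cutoff, the plate mean of test compounds plus 3 SD (cut at about 30% in these data); inactive = the rest.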 What follows is part of a selection rich in actives, with near analogues and random picks from the rest.
Your reply should match one of these outcome classes. YES = active, NO = inactive

>>> label("CCN1CCC2(CC1)N=C(c1ccc(F)cc1)C(=S)N2C(=O)c1ccc(C)cc1")
"NO"
>>> label("O=C1c2cccc(OCC(=O)N3N=C(c4cccs4)CC3c3ccc(F)cc3)c2CCN1Cc1ccccc1 (centres undefined)")
"NO"
>>> label("CSc1cccc(NC(=O)CN2C(=O)COc3ccc(S(=O)(=O)N4CCOCC4)cc32)c1")
"NO"

*Q* Outcome logged for COc1ccc(N2CC(C(=O)NCCN3C(=O)S/C(=C\c4cccnc4)C3=O)CC2=O)c(OC)c1 (centres undefined) in this assay:
*A* YES

*Q* Call for entry COc1ccccc1N1CC(C(=O)NCCN2C(=O)S/C(=C\c3cccnc3)C2=O)CC1=O (centres undefined) :
*A* NO

*Q* Hello, I am checking results. What call was entered for NC(=O)c1ccc(-c2csnn2)cc1 ?
*A* NO

###

# assayed.target: Female germline-specific tumor suppressor gld-1 (Caenorhabditis elegans) (UniProt Q17339)
# measurement.protocol: small molecules blocking C. elegans GLD-1 RNA recognition – biochemical, fluorescence polarization, primary screen (AID 2280);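 also: 0% = DMSO wells with GLD-1 and probe and 100% = wells lacking GLD-1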
# measurement.conditions: purified GLD-1 + fluorescein TGE RNA, at 5.96 µM, active compounds read high
Screen size: about 320,000 compounds; about 1,400 (0.44%) were called active. The full list was thinned out, with actives kept by preference.
measure.name: inhibition (%)
Just the number please, in %, no unit attached.

>>> reading("O=[N+]([O-])/C=C/c1ccc2c(ccn2Cc2ccccc2)c1")
7.04
>>> reading("Cc1ccc(NC(=O)C(=O)NCc2ccc(/C=N/NC(=O)c3c(C)nc4cc(C)ccn34)o2)cc1")
1.79

*Q* inhibition lookup needed for CSc1ccc(S(=O)(=O)N2CCC(C(=O)NCc3ccncc3)CC2)cc1 , thanks.
*A* -3.16

###

# assayed.target: Female germline-specific tumor suppressor gld-1 (Caenorhabditis elegans) (UniProt Q17339)
# measurement.protocol: small molecules blocking C. elegans GLD-1 RNA recognition – biochemical, fluorescence polarization, primary screen (AID 2280);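 also: 0% = DMSO wells with GLD-1 and probe and 100% = wells lacking GLD-1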
# measurement.conditions: purified GLD-1 + fluorescein TGE RNA, at 5.96 µM
Hit rate of the full screen: of about 320,000 compounds, about 1,400 (0.44%) were called active.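 Rule for the calls: active = percent inhibition above a per-plate cutoff, the plate mean of test compounds plus 3 SD (cut at about 30% in these data); inactive = the rest.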 The full list was thinned out, with actives kept by preference.
Use one of these outcomes when replying: active, inactive

Worked examples follow.
>>> label("COC(=O)C1CCN(C(=O)c2cc(=O)[nH]c3ccccc23)CC1")
"inactive"
>>> label("Nc1nonc1-c1nc2ccccc2n1Cc1ccc(F)cc1")
"inactive"

*Q* Hi, sorry to bother you, what did the test record for COC(=O)CN1C(=O)N/C(=C/c2ccc(OC)c(C)c2OC)C1=O ?
*A* inactive

*Q* What did this assay record as the result for O=C(Nc1cccc(F)c1)[C@@H]1CCCN1 ?
*A* inactive

*Q* Returns: the outcome recorded for CC1=CC2=NC(=O)/C(=C/c3coc4ccccc4c3=O)C(=N)N2O1 in this assay.
*A* active
